- tgt: Porcine DPP-IV (Sus scrofa)
- Construct: purchased Sigma-Aldrich Germany
- Sequence (P22411 whole entry): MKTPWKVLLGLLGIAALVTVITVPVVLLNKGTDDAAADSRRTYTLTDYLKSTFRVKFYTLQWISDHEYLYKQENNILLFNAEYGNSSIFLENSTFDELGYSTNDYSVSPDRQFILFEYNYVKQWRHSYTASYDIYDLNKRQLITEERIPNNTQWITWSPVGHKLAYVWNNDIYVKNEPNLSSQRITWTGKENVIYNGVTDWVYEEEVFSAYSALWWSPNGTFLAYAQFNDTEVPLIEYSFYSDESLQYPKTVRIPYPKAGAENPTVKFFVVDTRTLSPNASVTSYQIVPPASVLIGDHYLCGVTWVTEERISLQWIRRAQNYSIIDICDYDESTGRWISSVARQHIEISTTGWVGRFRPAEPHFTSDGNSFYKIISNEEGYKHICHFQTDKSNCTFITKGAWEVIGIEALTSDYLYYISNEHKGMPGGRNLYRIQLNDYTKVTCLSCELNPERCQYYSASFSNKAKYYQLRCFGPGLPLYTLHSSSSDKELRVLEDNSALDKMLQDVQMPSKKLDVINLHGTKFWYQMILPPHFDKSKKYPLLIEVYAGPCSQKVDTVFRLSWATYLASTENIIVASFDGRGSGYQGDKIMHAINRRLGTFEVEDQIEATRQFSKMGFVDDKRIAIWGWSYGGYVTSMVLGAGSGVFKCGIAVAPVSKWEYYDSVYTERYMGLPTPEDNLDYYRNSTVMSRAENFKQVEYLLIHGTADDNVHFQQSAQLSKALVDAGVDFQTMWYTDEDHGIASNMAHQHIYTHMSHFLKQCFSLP
- testProtocol: Assay of DPP-IV enzyme inhibitory activity (spectrophotometric, Gly-Pro-pNA cleavage)
- Format: biochemical
- conditionLabel: Porcine DPP-IV, Gly-Pro-pNA substrate, 30° C.; mean ± SD of three experiments except compound Nos. 133 & 139; read-out: IC50 (μM) Mean ± SD, inhibitory activity on DPP-IV enzyme activity
Structures can show the parent of a compound that is named as a salt.
// assign T if IC50 falls strictly below 1 µM, else F (ties count as F)

[[record]]
compound = "N#CC1CSCN1C(=O)CN(N)C1CCCCC1.O=C(O)C(F)(F)F (stereo not drawn)"
tgt = "Porcine DPP-IV (Sus scrofa)"
qualitativelabel = "F"

[[record]]
compound = "N#CC1CSCN1C(=O)CN(N)C1CCN(Cc2cccnc2)CC1 (stereo not drawn)"
tgt = "Porcine DPP-IV (Sus scrofa)"
qualitativelabel = "F"

[[record]]
compound = "N#CC1CSCN1C(=O)CN(N)Cc1ccccc1 (stereo not drawn)"
tgt = "Porcine DPP-IV (Sus scrofa)"
qualitativelabel = "F"

[[record]]
compound = "CC1CCC(N(N)CC(=O)N2CSCC2C#N)CC1.O=C(O)C(F)(F)F (stereo not drawn) [Compound No. 29]"
tgt = "Porcine DPP-IV (Sus scrofa)"
qualitativelabel = "T"

[[record]]
compound = "N#CC1CSCN1C(=O)CN1CCCCN1 (stereo not drawn)"
tgt = "Porcine DPP-IV (Sus scrofa)"
qualitativelabel = "F"

[[record]]
compound = "CCNN(CC(=O)N1CSCC1C#N)C1CCC(NS(C)(=O)=O)CC1 (stereo not drawn)"
tgt = "Porcine DPP-IV (Sus scrofa)"
qualitativelabel = "F"

[[record]]
compound = "N#CC1CSCN1C(=O)CN(N)C1CCN(CC(=O)Nc2ccc(S(N)(=O)=O)cc2)CC1 (stereo not drawn) [compound 142, dihydrochloride]"
tgt = "Porcine DPP-IV (Sus scrofa)"
qualitativelabel = "T"

[[record]]
compound = "N#CC1CSCN1C(=O)CN(N)C1CCN(CCC(=O)NC2CC2)CC1 (stereo not drawn)"
tgt = "Porcine DPP-IV (Sus scrofa)"
qualitativelabel = "F"

[[record]]
compound = "N#CC1CSCN1C(=O)CN(N)C1CCN(CC(=O)Nc2ccc(S(N)(=O)=O)cc2)CC1 (stereo not drawn) [compound 131]"
tgt = "Porcine DPP-IV (Sus scrofa)"
qualitativelabel = "T"

[[record]]
compound = "N#CC1CCCN1C(=O)CN(N)C1CCCCC1 (stereo not drawn)"
tgt = "Porcine DPP-IV (Sus scrofa)"
qualitativelabel = "F"

[[record]]
compound = "N#CC1CSCN1C(=O)CN(N)C1CCC(NS(=O)(=O)c2ccc(Cl)cc2)CC1 (stereo not drawn)"
tgt = "Porcine DPP-IV (Sus scrofa)"
qualitativelabel = "T"

[[record]]
compound = "CC(C)(C)C1CCC(N(N)CC(=O)N2CSCC2C#N)CC1 (stereo not drawn) [Compound No. 47]"
tgt = "Porcine DPP-IV (Sus scrofa)"
qualitativelabel = "F"

[[record]]
compound = "CCNN(CC(=O)N1CSCC1C#N)C1CCC(C)CC1 (stereo not drawn)"
tgt = "Porcine DPP-IV (Sus scrofa)"
qualitativelabel = "T"

[[record]]
compound = "N#CC1CSCN1C(=O)CN(N)C1CCN(Cc2ccc(F)cc2)CC1 (stereo not drawn)"
tgt = "Porcine DPP-IV (Sus scrofa)"
qualitativelabel = "F"

[[record]]
compound = "CC(=O)NN(CC(=O)N1CSCC1C#N)C1CCC(C)CC1 (stereo not drawn)"
tgt = "Porcine DPP-IV (Sus scrofa)"
qualitativelabel = "F"

[[record]]
compound = "N#Cc1ccc(NC(=O)CN2CCC(N(N)CC(=O)N3CSCC3C#N)CC2)nc1 (stereo not drawn)"
tgt = "Porcine DPP-IV (Sus scrofa)"
qualitativelabel = "T"

[[record]]
compound = "CC1CCC(CN(N)CC(=O)N2CCCC2C#N)CC1 (stereo not drawn)"
tgt = "Porcine DPP-IV (Sus scrofa)"
qualitativelabel = "F"

